tested on: U937; design: species or system AML cell lines (8); Primary HTS, single concentration about 10 uM, Cell Titer Glo viability; log10 luminescence, per cent inhibition relative to cycloheximide control; settings: 72 h, relative to cycloheximide control, log10 luminescence; inhibitor
quantity: U937 %inh (%)
Report as a plain number; the unit % is understood.

Oc1ncnc2[nH]ncc12 [SJ000285807-6, ALLOPURINOL] ... 0.524
O=C1NC(=O)C(c2cccc(Cl)c2)=C1Nc1ccc(Cl)c(C(=O)O)c1 [SJ000573179-1, RS98844-062A1] ... 1.114
Cn1cc(C2=C(c3cccc(Cl)c3)C(=O)NC2=O)c2ccccc21 [SJ000580981-1] ... 1.717
O=C(O)c1cc2cc(O)c(O)cc2c(C(=O)c2ccc(O)c(O)c2)n1 [SJ000773184-1, NBI-31772] ... 2.592
Cc1ccc(Nc2nccc(N(C)c3ccc4c(C)n(C)nc4c3)n2)cc1S(N)(=O)=O [SJ000556680-2] ... 10.79

Form field: reported U937 %inh of Fc1ccc(-c2nn3ccccc3c2-c2ccncc2)cc1 [SJ000573260-1, U11781/145/5]
4.651

Form field: reported U937 %inh of CNC(=O)c1cncc(/C=C/c2c(C)cccc2C)c1 [SJ000573249-1, U12068/55/2]
-0.6106

Form field: reported U937 %inh of NC(CCC(=O)NOC(=O)c1ccccc1)C(=O)N1CCCC1 (centres unmarked) [SJ000773150-1]
-0.8595
